# System: NCI-H1944
# test protocol: relative viability (nuclei count vs DMSO), 5 days (fraction); higher = more cells survive
# measurement context: first compound 0.6325 µM
measured property: relative viability

[
  {
    "compound": "Cc1csc(=NC2CCCCC2)n1/N=C/c1ccc(O)c(O)c1O [MIM1] + C[C@@H](Oc1cc(-c2cnn(C3CCNCC3)c2)cnc1N)c1c(Cl)ccc(F)c1Cl [Crizotinib] (partner 1 µM)",
    "target under test": "NCI-H1944",
    "measured property": "relative viability",
    "measured number": 1.09
  },
  {
    "compound": "CN1CCN(CCOc2cc(OC3CCOCC3)c3c(Nc4c(Cl)ccc5c4OCO5)ncnc3c2)CC1 [Saracatinib] + Cc1nc(Nc2ncc(C(=O)Nc3c(C)cccc3Cl)s2)cc(N2CCN(CCO)CC2)n1 [Dasatinib] (partner 0.075 µM)",
    "target under test": "NCI-H1944",
    "measured property": "relative viability",
    "measured number": 0.182
  }
]

---

# Tested on: NCI-H522
# test protocol: relative viability (nuclei count vs DMSO), 5 days (fraction); higher = more cells survive
# measurement context: first compound 0.006325 µM

[
  {
    "compound": "CCNC(=O)c1noc(-c2cc(C(C)C)c(O)cc2O)c1-c1ccc(CN2CCOCC2)cc1 [Luminespib] + Nc1nc2[nH]cc(CCc3ccc(C(=O)N[C@@H](CCC(=O)O)C(=O)O)cc3)c2c(=O)[nH]1 [Pemetrexed] (partner 0.2 µM)",
    "target under test": "NCI-H522",
    "relative viability": 0.974
  },
  {
    "compound": "CCNC(=O)c1noc(-c2cc(C(C)C)c(O)cc2O)c1-c1ccc(CN2CCOCC2)cc1 [Luminespib] + O=C(CCCCCCC(=O)Nc1ccccc1)NO [Vorinostat] (partner 1 µM)",
    "target under test": "NCI-H522",
    "relative viability": 0.904
  },
  {
    "compound": "CCNC(=O)c1noc(-c2cc(C(C)C)c(O)cc2O)c1-c1ccc(CN2CCOCC2)cc1 [Luminespib] + COc1cccc2cc(-c3nc([C@H]4CC[C@H](C(=O)O)CC4)n4ncnc(N)c34)[nH]c12 [OSI-027] (partner 0.5 µM)",
    "target under test": "NCI-H522",
    "relative viability": 0.732
  },
  {
    "compound": "CCNC(=O)c1noc(-c2cc(C(C)C)c(O)cc2O)c1-c1ccc(CN2CCOCC2)cc1 [Luminespib] + CC(=O)Nc1cccc(-n2c(=O)n(C3CC3)c(=O)c3c(Nc4ccc(I)cc4F)n(C)c(=O)c(C)c32)c1 [Trametinib] (partner 0.02 µM)",
    "target under test": "NCI-H522",
    "relative viability": 0.716
  }
]

---

# System: PC-14
# test protocol: relative viability (nuclei count vs DMSO), 5 days (fraction); higher = more cells survive
# measurement context: first compound 0.2 µM
The reader will find reported relative viability values listed item by item below.

[
  {
    "compound": "Cc1csc(=NC2CCCCC2)n1/N=C/c1ccc(O)c(O)c1O [MIM1] + CS(=O)(=O)N1CCN(Cc2cc3nc(-c4cccc5[nH]ncc45)nc(N4CCOCC4)c3s2)CC1 [Pictilisib] (partner 1 µM)",
    "relative viability": 0.629
  },
  {
    "compound": "Cc1csc(=NC2CCCCC2)n1/N=C/c1ccc(O)c(O)c1O [MIM1] + COc1cc2c(Oc3ccc(NC(=O)C4(C(=O)Nc5ccc(F)cc5)CC4)cc3F)ccnc2cc1OCCCN1CCOCC1 [Foretinib] (partner 0.25 µM)",
    "relative viability": 0.931
  },
  {
    "compound": "Cc1csc(=NC2CCCCC2)n1/N=C/c1ccc(O)c(O)c1O [MIM1] + CCNC(=O)c1noc(-c2cc(C(C)C)c(O)cc2O)c1-c1ccc(CN2CCOCC2)cc1 [Luminespib] (partner 0.01 µM)",
    "relative viability": 0.177
  },
  {
    "compound": "CN1CCN(CCOc2cc(OC3CCOCC3)c3c(Nc4c(Cl)ccc5c4OCO5)ncnc3c2)CC1 [Saracatinib] + Cc1nc(Nc2ncc(C(=O)Nc3c(C)cccc3Cl)s2)cc(N2CCN(CCO)CC2)n1 [Dasatinib] (partner 0.075 µM)",
    "relative viability": 0.127
  },
  {
    "compound": "Cc1csc(=NC2CCCCC2)n1/N=C/c1ccc(O)c(O)c1O [MIM1] + COc1cccc2cc(-c3nc([C@H]4CC[C@H](C(=O)O)CC4)n4ncnc(N)c34)[nH]c12 [OSI-027] (partner 0.5 µM)",
    "relative viability": 0.785
  },
  {
    "compound": "CN1CCN(CCOc2cc(OC3CCOCC3)c3c(Nc4c(Cl)ccc5c4OCO5)ncnc3c2)CC1 [Saracatinib] + COc1cccc2cc(-c3nc([C@H]4CC[C@H](C(=O)O)CC4)n4ncnc(N)c34)[nH]c12 [OSI-027] (partner 0.5 µM)",
    "relative viability": 0.406
  }
]

---

# Test system: NCI-H2009
# test protocol: relative viability (nuclei count vs DMSO), 5 days (fraction); higher = more cells survive
# measurement context: first compound 0.6325 µM
relative viability vs 0.7: less than gives fulfilled; not less than gives not fulfilled.

[
  {
    "compound": "Cc1csc(=NC2CCCCC2)n1/N=C/c1ccc(O)c(O)c1O [MIM1] + C[C@@H](Oc1cc(-c2cnn(C3CCNCC3)c2)cnc1N)c1c(Cl)ccc(F)c1Cl [Crizotinib] (partner 1 µM)",
    "target under test": "NCI-H2009",
    "class name": "not fulfilled"
  },
  {
    "compound": "Cc1csc(=NC2CCCCC2)n1/N=C/c1ccc(O)c(O)c1O [MIM1] + N=C(N)NC(=N)NCCc1ccccc1 [Phenformin] (partner 250 µM)",
    "target under test": "NCI-H2009",
    "class name": "fulfilled"
  },
  {
    "compound": "CN1CCN(CCOc2cc(OC3CCOCC3)c3c(Nc4c(Cl)ccc5c4OCO5)ncnc3c2)CC1 [Saracatinib] + CS(=O)(=O)CCNCc1ccc(-c2ccc3ncnc(Nc4ccc(OCc5cccc(F)c5)c(Cl)c4)c3c2)o1 [Lapatinib] (partner 2 µM)",
    "target under test": "NCI-H2009",
    "class name": "not fulfilled"
  },
  {
    "compound": "Cc1csc(=NC2CCCCC2)n1/N=C/c1ccc(O)c(O)c1O [MIM1] + O=C(c1cc(Cc2n[nH]c(=O)c3ccccc23)ccc1F)N1CCN(C(=O)C2CC2)CC1 [Olaparib] (partner 8 µM)",
    "target under test": "NCI-H2009",
    "class name": "fulfilled"
  },
  {
    "compound": "CN1CCN(CCOc2cc(OC3CCOCC3)c3c(Nc4c(Cl)ccc5c4OCO5)ncnc3c2)CC1 [Saracatinib] + O=C(CCCCCCC(=O)Nc1ccccc1)NO [Vorinostat] (partner 1 µM)",
    "target under test": "NCI-H2009",
    "class name": "fulfilled"
  },
  {
    "compound": "Cc1csc(=NC2CCCCC2)n1/N=C/c1ccc(O)c(O)c1O [MIM1] + Cc1nc(NC(=O)N2CCC[C@H]2C(N)=O)sc1-c1ccnc(C(C)(C)C(F)(F)F)c1 [Alpelisib] (partner 2 µM)",
    "target under test": "NCI-H2009",
    "class name": "not fulfilled"
  },
  {
    "compound": "Cc1csc(=NC2CCCCC2)n1/N=C/c1ccc(O)c(O)c1O [MIM1] + CS(=O)(=O)N1CCN(Cc2cc3nc(-c4cccc5[nH]ncc45)nc(N4CCOCC4)c3s2)CC1 [Pictilisib] (partner 1 µM)",
    "target under test": "NCI-H2009",
    "class name": "not fulfilled"
  },
  {
    "compound": "CN1CCN(CCOc2cc(OC3CCOCC3)c3c(Nc4c(Cl)ccc5c4OCO5)ncnc3c2)CC1 [Saracatinib] + COc1cc2c(Oc3ccc(NC(=O)C4(C(=O)Nc5ccc(F)cc5)CC4)cc3F)ccnc2cc1OCCCN1CCOCC1 [Foretinib] (partner 0.25 µM)",
    "target under test": "NCI-H2009",
    "class name": "not fulfilled"
  }
]

---

# Test system: A549
# test protocol: relative viability (nuclei count vs DMSO), 5 days (fraction); higher = more cells survive
# measurement context: first compound 0.2 µM
The reader will find reported relative viability values listed item by item below.

[
  {
    "compound": "CN1CCN(CCOc2cc(OC3CCOCC3)c3c(Nc4c(Cl)ccc5c4OCO5)ncnc3c2)CC1 [Saracatinib] + CS(=O)(=O)N1CCN(Cc2cc3nc(-c4cccc5[nH]ncc45)nc(N4CCOCC4)c3s2)CC1 [Pictilisib] (partner 1 µM)",
    "relative viability": 0.412
  },
  {
    "compound": "CN1CCN(CCOc2cc(OC3CCOCC3)c3c(Nc4c(Cl)ccc5c4OCO5)ncnc3c2)CC1 [Saracatinib] + C[C@@H](Oc1cc(-c2cnn(C3CCNCC3)c2)cnc1N)c1c(Cl)ccc(F)c1Cl [Crizotinib] (partner 1 µM)",
    "relative viability": 0.738
  },
  {
    "compound": "Cc1csc(=NC2CCCCC2)n1/N=C/c1ccc(O)c(O)c1O [MIM1] + O=C(c1cc(Cc2n[nH]c(=O)c3ccccc23)ccc1F)N1CCN(C(=O)C2CC2)CC1 [Olaparib] (partner 8 µM)",
    "relative viability": 0.277
  },
  {
    "compound": "CN1CCN(CCOc2cc(OC3CCOCC3)c3c(Nc4c(Cl)ccc5c4OCO5)ncnc3c2)CC1 [Saracatinib] + C[C@]1(O)C[C@@H](c2nc(-c3ccc4ccc(-c5ccccc5)nc4c3)c3c(N)nccn32)C1 [Linsitinib] (partner 1 µM)",
    "relative viability": 0.566
  }
]
